# CONDITION: 293.15 K; 101.3 kPa; Liquid; Falling or rolling sphere viscometry
Readings of viscosity for the listed molecules
I only need the number, in mPa·s, no unit after it.

Here's what some known entries look like.
CCOC(=O)OCC [diethyl carbonate]    0.795
CCCCCCCC [octane]    0.545

Query string: # get_value(readout='viscosity', item= COC(=O)OC [dimethyl carbonate] )
Result string: 0.626

Query string: Sample CCCCCCC [heptane] — what was its viscosity?
Result string: 0.411

Query string: What does the data say about its viscosity? Entry: CCCCCC [hexane]
Result string: 0.313

Query string: GET /values?readout=viscosity&item= C1CCCCC1 [cyclohexane]
Result string: 0.976

Data origin: the NIST ThermoML archive (doi:10.1021/je020131a)
